biological target: MARK3 (NLuc-MARK3) (Homo sapiens, UniProt P27448); assay: NanoBRET cellular target engagement assay
Sequence (P27448 whole entry): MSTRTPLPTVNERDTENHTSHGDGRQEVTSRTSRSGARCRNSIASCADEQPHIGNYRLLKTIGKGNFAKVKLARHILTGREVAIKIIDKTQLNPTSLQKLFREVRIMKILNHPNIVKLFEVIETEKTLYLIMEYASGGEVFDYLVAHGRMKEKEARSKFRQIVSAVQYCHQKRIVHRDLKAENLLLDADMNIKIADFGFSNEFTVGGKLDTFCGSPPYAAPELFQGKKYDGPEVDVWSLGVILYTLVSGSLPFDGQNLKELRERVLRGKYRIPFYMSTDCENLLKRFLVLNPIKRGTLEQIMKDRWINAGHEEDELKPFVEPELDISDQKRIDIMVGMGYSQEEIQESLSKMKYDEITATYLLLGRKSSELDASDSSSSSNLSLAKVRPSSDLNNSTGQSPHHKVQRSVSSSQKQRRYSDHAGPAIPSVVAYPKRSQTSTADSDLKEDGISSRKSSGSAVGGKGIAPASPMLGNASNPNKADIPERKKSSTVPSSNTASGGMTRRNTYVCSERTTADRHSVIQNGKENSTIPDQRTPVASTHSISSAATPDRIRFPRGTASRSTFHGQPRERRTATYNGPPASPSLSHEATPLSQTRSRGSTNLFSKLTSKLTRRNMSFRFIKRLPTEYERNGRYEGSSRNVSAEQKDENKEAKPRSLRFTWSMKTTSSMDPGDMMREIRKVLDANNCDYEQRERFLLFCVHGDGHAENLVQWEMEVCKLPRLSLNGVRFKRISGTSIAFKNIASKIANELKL
quantityName: IC50 (nM)
# output: bare number, implied unit nM

Q: Look up and report measured IC50 for this entry: O=C(NCCCNc1nc(Nc2cccc(NC(=O)N3CCCC3)c2)ncc1I)c1cccs1 [BX-795, reference compound]
Result: 515

---

no. kinases ≤ 10 PoC in enzyme panel listing for selected compounds.
test system: 16-member kinase panel; experiment: Eurofins custom enzymatic kinase panel, count of kinases inhibited; type: biochemical; conditions: 16-member Eurofins panel, 1 μM
Hey, just send me the number, nothing else.

Example cases with answers are listed next.
- compound: "Cc1nn(CC(F)(F)F)cc1Nc1ncc(C2CC2)c(NCc2ccc(S(N)(=O)=O)cc2)n1"
  no. kinases ≤ 10 PoC in enzyme panel: 1
- compound: "O=C(Nc1cccc(Nc2ncc(Br)c(NCCc3cnc[nH]3)n2)c1)N1CCCC1 [BX-912, reference compound]"
  no. kinases ≤ 10 PoC in enzyme panel: 14
- compound: "NS(=O)(=O)c1ccc(CNc2nc(Nc3cccc(NC(=O)N4CCCC4)c3)ncc2C2CC2)cc1"
  no. kinases ≤ 10 PoC in enzyme panel: 1
- compound: "NS(=O)(=O)c1ccc(CNc2ccnc(Nc3cccc(NC(=O)N4CCCC4)c3)n2)cc1"
  no. kinases ≤ 10 PoC in enzyme panel: 0

Q: Look up and report measured no. kinases ≤ 10 PoC in enzyme panel for this entry: O=C(NCCCNc1nc(Nc2cccc(CN3CCOCC3)c2)ncc1C1CC1)C1CCC1 [MRT67307, reference compound]
Result: 12

Q: Look up and report measured no. kinases ≤ 10 PoC in enzyme panel for this entry: O=C(NCCCNc1nc(Nc2cccc(NC(=O)N3CCCC3)c2)ncc1C1CC1)C1CCC1
Result: 9

Q: Look up and report measured no. kinases ≤ 10 PoC in enzyme panel for this entry: Cc1nn(CC(F)(F)F)cc1Nc1ncc(C2CC2)c(NCCc2c[nH]cn2)n1
Result: 0

Q: Look up and report measured no. kinases ≤ 10 PoC in enzyme panel for this entry: O=C(NCCCNc1nc(Nc2cccc(NC(=O)N3CCCC3)c2)ncc1Br)C1CCC1
Result: 16

Q: Look up and report measured no. kinases ≤ 10 PoC in enzyme panel for this entry: NS(=O)(=O)c1ccc(CNc2nc(Nc3cccc(NC(=O)N4CCCC4)c3)ncc2Br)cc1
Result: 4

Q: Look up and report measured no. kinases ≤ 10 PoC in enzyme panel for this entry: Cc1nn(CC(F)(F)F)cc1Nc1nccc(NCCCNC(=O)C2CCC2)n1
Result: 0

---

target: ULK2 (Homo sapiens)
Sequence (Q8IYT8 whole entry): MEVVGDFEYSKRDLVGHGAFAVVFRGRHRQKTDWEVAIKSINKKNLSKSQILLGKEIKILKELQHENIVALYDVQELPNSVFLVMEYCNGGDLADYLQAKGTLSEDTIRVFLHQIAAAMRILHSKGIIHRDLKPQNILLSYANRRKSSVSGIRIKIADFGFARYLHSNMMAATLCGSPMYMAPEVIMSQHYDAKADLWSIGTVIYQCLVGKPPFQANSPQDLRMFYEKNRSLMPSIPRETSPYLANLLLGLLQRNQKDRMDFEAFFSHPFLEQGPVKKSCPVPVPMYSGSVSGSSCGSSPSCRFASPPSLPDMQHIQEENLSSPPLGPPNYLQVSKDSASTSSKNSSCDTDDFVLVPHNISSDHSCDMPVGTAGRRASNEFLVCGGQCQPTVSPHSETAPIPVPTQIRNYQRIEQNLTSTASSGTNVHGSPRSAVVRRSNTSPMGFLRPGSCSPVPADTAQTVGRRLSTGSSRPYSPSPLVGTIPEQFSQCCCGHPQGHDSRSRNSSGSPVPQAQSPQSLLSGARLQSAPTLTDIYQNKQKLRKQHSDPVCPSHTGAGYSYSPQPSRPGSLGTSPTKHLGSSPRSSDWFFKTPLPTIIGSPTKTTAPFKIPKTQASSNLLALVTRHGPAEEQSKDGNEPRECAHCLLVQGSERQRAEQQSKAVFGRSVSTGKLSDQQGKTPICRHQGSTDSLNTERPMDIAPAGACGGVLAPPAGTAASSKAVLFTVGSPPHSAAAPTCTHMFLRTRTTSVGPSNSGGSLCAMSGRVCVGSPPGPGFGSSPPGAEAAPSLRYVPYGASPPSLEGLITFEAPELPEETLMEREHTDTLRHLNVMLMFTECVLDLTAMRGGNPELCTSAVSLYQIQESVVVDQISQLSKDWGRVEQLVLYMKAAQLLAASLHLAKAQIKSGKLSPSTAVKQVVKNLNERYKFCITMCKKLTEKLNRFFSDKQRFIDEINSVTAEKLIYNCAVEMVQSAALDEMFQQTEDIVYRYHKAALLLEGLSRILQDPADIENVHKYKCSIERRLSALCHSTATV
quantityName: pIC50
Scale note: pIC50 = -log10(concentration in M).

Q: Look up and report measured pIC50 for this entry: Cc1nn(CC(F)(F)F)cc1Nc1ncc(C2CC2)c(NCCCNC(=O)C2CCC2)n1 [Compound 4]
Result: 5.76

---

biological target: JAK2 (Homo sapiens, UniProt O60674); experiment: Eurofins kinase enzymatic radiometric assay; format: biochemical
Sequence (O60674 whole entry): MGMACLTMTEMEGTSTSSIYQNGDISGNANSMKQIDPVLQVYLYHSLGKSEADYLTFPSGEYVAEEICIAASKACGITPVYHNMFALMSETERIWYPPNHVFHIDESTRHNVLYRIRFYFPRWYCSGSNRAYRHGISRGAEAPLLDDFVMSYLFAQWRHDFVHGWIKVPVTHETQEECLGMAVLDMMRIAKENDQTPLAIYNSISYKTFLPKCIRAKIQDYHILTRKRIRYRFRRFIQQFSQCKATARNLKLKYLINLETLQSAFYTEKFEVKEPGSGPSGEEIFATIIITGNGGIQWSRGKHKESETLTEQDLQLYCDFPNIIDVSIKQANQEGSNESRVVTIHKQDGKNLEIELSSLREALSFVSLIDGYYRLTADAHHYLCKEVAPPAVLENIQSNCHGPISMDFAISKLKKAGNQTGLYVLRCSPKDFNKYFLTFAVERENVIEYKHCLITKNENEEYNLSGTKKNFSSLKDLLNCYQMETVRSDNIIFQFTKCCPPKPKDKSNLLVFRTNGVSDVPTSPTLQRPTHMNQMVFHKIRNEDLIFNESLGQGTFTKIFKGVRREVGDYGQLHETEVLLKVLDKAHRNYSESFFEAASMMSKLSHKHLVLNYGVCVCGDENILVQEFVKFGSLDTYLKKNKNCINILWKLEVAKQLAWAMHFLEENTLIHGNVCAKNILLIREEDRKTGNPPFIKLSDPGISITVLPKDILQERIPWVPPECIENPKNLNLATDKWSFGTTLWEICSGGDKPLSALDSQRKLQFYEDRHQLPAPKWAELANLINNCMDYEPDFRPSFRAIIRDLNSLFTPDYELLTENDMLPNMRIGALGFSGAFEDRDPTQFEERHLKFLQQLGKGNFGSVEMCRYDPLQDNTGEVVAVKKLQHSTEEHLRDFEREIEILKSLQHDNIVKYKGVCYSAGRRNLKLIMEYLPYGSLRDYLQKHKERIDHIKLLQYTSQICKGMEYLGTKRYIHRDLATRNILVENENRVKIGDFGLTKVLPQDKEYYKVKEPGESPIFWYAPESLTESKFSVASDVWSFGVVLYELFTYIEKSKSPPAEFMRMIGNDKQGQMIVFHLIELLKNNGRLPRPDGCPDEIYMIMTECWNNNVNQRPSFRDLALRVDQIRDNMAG
pIC50: −log10 of the molar value.
quantityName: pIC50

Q: Look up and report measured pIC50 for this entry: O=C(NCCCNc1ccnc(Nc2cccc(NC(=O)N3CCCC3)c2)n1)C1CCC1
Result: < 5.00

---

Biological target: NUAK1 (Homo sapiens, UniProt O60285)
Sequence (O60285 1-661): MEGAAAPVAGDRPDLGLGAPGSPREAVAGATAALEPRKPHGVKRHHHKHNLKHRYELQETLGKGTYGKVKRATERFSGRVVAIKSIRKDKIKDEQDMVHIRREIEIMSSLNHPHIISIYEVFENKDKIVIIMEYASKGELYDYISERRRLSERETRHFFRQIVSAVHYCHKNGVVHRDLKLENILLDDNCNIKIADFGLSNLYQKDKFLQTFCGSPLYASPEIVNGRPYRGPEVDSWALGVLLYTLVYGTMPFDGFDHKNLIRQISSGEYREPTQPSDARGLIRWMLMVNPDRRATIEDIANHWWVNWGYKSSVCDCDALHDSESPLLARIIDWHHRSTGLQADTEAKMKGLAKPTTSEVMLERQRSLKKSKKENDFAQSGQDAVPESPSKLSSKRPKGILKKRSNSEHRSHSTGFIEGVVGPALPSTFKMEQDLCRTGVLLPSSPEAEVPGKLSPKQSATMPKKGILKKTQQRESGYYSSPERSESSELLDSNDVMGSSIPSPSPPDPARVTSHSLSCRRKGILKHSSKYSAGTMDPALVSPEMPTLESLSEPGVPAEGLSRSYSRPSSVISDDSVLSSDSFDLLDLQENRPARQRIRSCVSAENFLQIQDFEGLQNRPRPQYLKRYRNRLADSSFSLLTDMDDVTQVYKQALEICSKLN
Assay: NanoBRET assay follow-up
quantityName: pIC50
Scale note: pIC50 = -log10(concentration in M).

Q: Look up and report measured pIC50 for this entry: O=C(NCCCNc1nc(Nc2cccc(NC(=O)N3CCCC3)c2)ncc1I)c1cccs1 [BX-795, reference compound]
Result: 6.73

---

test system: 16-member kinase panel; experiment: Eurofins custom enzymatic kinase panel, count of kinases inhibited; assay type: biochemical; details: 16-member Eurofins panel, 1 μM
quantityName: no. kinases ≤ 10 PoC in enzyme panel

- molecule: "Cc1nn(CC(F)(F)F)cc1Nc1ncc(Br)c(NCCCNC(=O)C2CCC2)n1"
  observed: 7
- molecule: "Cc1nn(CC(F)(F)F)cc1Nc1ncc(C2CC2)c(NCCCNC(=O)C2CCC2)n1"
  observed: 1
- molecule: "c1cc(CN2CCOCC2)cc(Nc2ncc(C3CC3)c(NCCc3c[nH]cn3)n2)c1"
  observed: 6

Next molecule, please.
Q: Using 16-member kinase panel as the test system, report measured no. kinases ≤ 10 PoC in enzyme panel of O=C(NCCCNc1nc(Nc2cccc(NC(=O)N3CCCC3)c2)ncc1I)c1cccs1 [BX-795, reference compound] .
Result: 16

---

tested on: 16-member kinase panel; experiment: Eurofins custom enzymatic kinase panel, count of kinases inhibited; format: biochemical; conditions: 16-member Eurofins panel, 1 μM
quantityName: no. kinases ≤ 10 PoC in enzyme panel

Example cases with answers are listed next.
- molecule: "O=C(NCCCNc1ccnc(Nc2cccc(NC(=O)N3CCCC3)c2)n1)C1CCC1 [Compound 17]"
  no. kinases ≤ 10 PoC in enzyme panel: 0
- molecule: "c1cc(CN2CCOCC2)cc(Nc2nccc(NCCc3cnc[nH]3)n2)c1 [Compound 20]"
  no. kinases ≤ 10 PoC in enzyme panel: 1
- molecule: "NS(=O)(=O)c1ccc(CNc2ccnc(Nc3cccc(CN4CCOCC4)c3)n2)cc1 [Compound 19]"
  no. kinases ≤ 10 PoC in enzyme panel: 0
- molecule: "CN1CCc2cc(Nc3ncc(C4CC4)c(NCCCNC(=O)C4CCC4)n3)ccc2C1 [MRT68921, reference compound]"
  no. kinases ≤ 10 PoC in enzyme panel: 13
- molecule: "Cc1nn(CC(F)(F)F)cc1Nc1ncc(Br)c(NCc2ccc(S(N)(=O)=O)cc2)n1 [GSK8612, reference compound]"
  no. kinases ≤ 10 PoC in enzyme panel: 1
- molecule: "Cc1nn(CC(F)(F)F)cc1Nc1ncc(Br)c(NCCc2cnc[nH]2)n1 [Compound 10]"
  no. kinases ≤ 10 PoC in enzyme panel: 0
- molecule: "Brc1cnc(Nc2cccc(CN3CCOCC3)c2)nc1NCCc1c[nH]cn1 [Compound 9]"
  no. kinases ≤ 10 PoC in enzyme panel: 13
- molecule: "NS(=O)(=O)c1ccc(CNc2nc(Nc3cccc(CN4CCOCC4)c3)ncc2Br)cc1 [Compound 6]"
  no. kinases ≤ 10 PoC in enzyme panel: 4

Q: Using 16-member kinase panel as the test system, report measured no. kinases ≤ 10 PoC in enzyme panel of Cc1nn(CC(F)(F)F)cc1Nc1nccc(NCCc2cnc[nH]2)n1 [Compound 15] .
Result: 0

Q: Using 16-member kinase panel as the test system, report measured no. kinases ≤ 10 PoC in enzyme panel of Cc1nn(CC(F)(F)F)cc1Nc1nccc(NCc2ccc(S(N)(=O)=O)cc2)n1 [Compound 12] .
Result: 0

Q: Using 16-member kinase panel as the test system, report measured no. kinases ≤ 10 PoC in enzyme panel of NS(=O)(=O)c1ccc(CNc2nc(Nc3cccc(CN4CCOCC4)c3)ncc2C2CC2)cc1 [Compound 11] .
Result: 1
